Hello, the source for this data is patent US20230263822A1, in case you need it.

I'd appreciate it if you could supply PT ratio (INR) values for the items below.
system: blood coagulation; assay: PT and aPTT assay in cynomolgus monkeys (Example 46); format: in vivo; settings: Day 24; platelet poor plasma; relative to PBS group
Strand notation (5' to 3'): a small letter for the sugar, then the base; units joined by * are phosphorothioate-linked, units joined directly phosphodiester-linked; [ ] holds rarer units or linkages, { } end groups; capitals alone tell only the bases. e = 2'-O-(2-methoxyethyl) (MOE); [5mC] = 5-methylcytosine; d = 2'-deoxy (DNA)
Format: numeric value only, no unit, no commentary.

Give me measured PT ratio (INR), please, for this substance: ISIS 445531: 5-8-5 or 6-8-6 MOE microwalk gapmer (Table 44) (antisense eG*eG*e[5mC]*eA*eT*dT*dG*dG*dT*dG*d[5mC]*dA*d[5mC]*eA*eG*eT*eT*eT)
1.02

Read the entry ISIS 449711: 3-8-3, 4-8-4, 2-10-2, 3-10-3 or 4-10-4 MOE microwalk gapmer (Table 46) (antisense eA*e[5mC]*dA*dG*dT*dT*dT*d[5mC]*dT*dG*dG*d[5mC]*eA*eG) and write its reported PT ratio (INR).
0.94

In one line, give reported PT ratio (INR) of the entry ISIS 449709: 3-8-3, 4-8-4, 2-10-2, 3-10-3 or 4-10-4 MOE microwalk gapmer (Table 46) (antisense eG*e[5mC]*eA*e[5mC]*dA*dG*dT*dT*dT*d[5mC]*dT*dG*dG*d[5mC]*eA*eG*eG*e[5mC]) .
0.95

Kindly indicate its recorded PT ratio (INR). Item: ISIS 445522: 5-8-5 or 6-8-6 MOE microwalk gapmer (Table 44) (antisense eG*e[5mC]*eA*e[5mC]*eA*dG*dT*dT*dT*d[5mC]*dT*dG*dG*e[5mC]*eA*eG*eG*e[5mC])
0.94

Please report the measured PT ratio (INR) for ISIS 449710: 3-8-3, 4-8-4, 2-10-2, 3-10-3 or 4-10-4 MOE microwalk gapmer (Table 46) (antisense e[5mC]*eA*e[5mC]*dA*dG*dT*dT*dT*d[5mC]*dT*dG*dG*d[5mC]*eA*eG*eG)
0.97

###

conditions: rat, in vivo, sc, 50 mg/kg
e = 2'-O-(2-methoxyethyl) (MOE); d = 2'-deoxy (DNA)
Kindly supply the reported hemoglobin values for the records listed here.

Fill in reported hemoglobin for this entry: ISIS 445504: 5-8-5 or 6-8-6 MOE microwalk gapmer (Table 44) (antisense GGCATTGGTGCACAGTTTCT; sugars from the 5' end e6 d8 e6, backbone and methylation of C not given here)
14.7 g/dL

Provide one value: measured hemoglobin of ISIS 445498: 5-8-5 or 6-8-6 MOE microwalk gapmer (Table 44) (antisense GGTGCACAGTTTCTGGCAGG; sugars from the 5' end e6 d8 e6, backbone and methylation of C not given here)
14.7 g/dL

Return hemoglobin for the following substance: ISIS 445513: 5-8-5 or 6-8-6 MOE microwalk gapmer (Table 44) (antisense GCAGCGGACGGCATTGGTGC; sugars from the 5' end e6 d8 e6, backbone and methylation of C not given here)
13.0 g/dL

Answer with the recorded hemoglobin for the substance listed here: ISIS 445505: 5-8-5 or 6-8-6 MOE microwalk gapmer (Table 44) (antisense CGGCATTGGTGCACAGTTTC; sugars from the 5' end e6 d8 e6, backbone and methylation of C not given here)
15.0 g/dL

Using the record for ISIS 445509: 5-8-5 or 6-8-6 MOE microwalk gapmer (Table 44) (antisense CGGACGGCATTGGTGCACAG; sugars from the 5' end e6 d8 e6, backbone and methylation of C not given here) , state its measured hemoglobin.
14.1 g/dL

Complete the entry with hemoglobin for ISIS 445530: 5-8-5 or 6-8-6 MOE microwalk gapmer (Table 44) (antisense GCATTGGTGCACAGTTTC; sugars from the 5' end e5 d8 e5, backbone and methylation of C not given here)
14.7 g/dL

###

Record form. Attribute: platelet count. Fill in for each entry.
assay: Hematology assays in cynomolgus monkeys (Example 45); assay type: in vivo; details: day 71
Give the quantity in µL⁻¹, number only.

Dear colleague, please send me the reported platelet count for ISIS 416850: MOE gapmer, nucleobases 1275 to 1318 of SEQ ID NO: 1 (Table 8) (antisense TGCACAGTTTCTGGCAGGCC; MOE gapmer, wing and gap sizes not given here) when you can.
465000

Kindly indicate its recorded platelet count. Item: ISIS 416858: MOE gapmer, nucleobases 1275 to 1318 of SEQ ID NO: 1 (Table 8) (antisense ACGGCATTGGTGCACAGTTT; MOE gapmer, wing and gap sizes not given here)
286000

Dear colleague, please send me the reported platelet count for ISIS 417002: MOE gapmer, nucleobases 1275 to 1318 of SEQ ID NO: 1 (Table 8) (antisense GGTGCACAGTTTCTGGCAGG; MOE gapmer, wing and gap sizes not given here) when you can.
490000

###

assay: Tolerability in CD1 mice: organ weight (Example 33); format: in vivo; details: 50 mg/kg s.c. twice a week, 2 weeks, vs PBS control, normalized to body weight
measured_metric: Percent change in kidney weight (%)
Form entry: value (%) — number only.

// Input: 416825 (antisense GCCCTTCATGTCTAGGTCCA; 5-10-5 gapmer, further chemistry not given here) [compound 416825] . Output its Percent change in kidney weight only.
−12

Answer with the recorded Percent change in kidney weight for the substance listed here: 416826 (antisense ATGCCCTTCATGTCTAGGTC; 5-10-5 gapmer, further chemistry not given here) [compound 416826]
−13

###

conditions: rat, in vivo, sc, 50 mg/kg
e = 2'-O-(2-methoxyethyl) (MOE); d = 2'-deoxy (DNA)
measured_metric: Creatinine (mg/dL)
# unit: mg/dL | format: bare number

Indicate its recorded Creatinine; the substance in question is ISIS 416856: MOE gapmer, nucleobases 1275 to 1318 of SEQ ID NO: 1 (Table 8) (antisense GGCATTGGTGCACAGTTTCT; MOE gapmer, wing and gap sizes not given here)
48

Respond only with Creatinine recorded for ISIS 413481: 5-10-5 MOE gapmer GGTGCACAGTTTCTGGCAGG (sugars from the 5' end e5 d10 e5, backbone and methylation of C not given here)
45

Return Creatinine for the following substance: ISIS 416852: MOE gapmer, nucleobases 1275 to 1318 of SEQ ID NO: 1 (Table 8) (antisense TGGTGCACAGTTTCTGGCAG; MOE gapmer, wing and gap sizes not given here)
60

Provide one value: measured Creatinine of ISIS 412224: 5-10-5 MOE gapmer GCATTGGTGCACAGTTTCTG (sugars from the 5' end e5 d10 e5, backbone and methylation of C not given here)
44

Return Creatinine (reported value) for this substance: ISIS 416851: MOE gapmer, nucleobases 1275 to 1318 of SEQ ID NO: 1 (Table 8) (antisense GTGCACAGTTTCTGGCAGGC; MOE gapmer, wing and gap sizes not given here)
70

###

tested on: human Factor 11 mRNA; assay: Dose-dependent inhibition of human Factor 11 in HepG2 cells, electroporation 375-12,000 nM (Example 32); assay type: cell-based; conditions: electroporation, 12,000 nM, approx. 16 hours, relative to untreated control cells
Strand notation (5' to 3'): a small letter for the sugar, then the base; units joined by * are phosphorothioate-linked, units joined directly phosphodiester-linked; [ ] holds rarer units or linkages, { } end groups; capitals alone tell only the bases. e = 2'-O-(2-methoxyethyl) (MOE); [5mC] = 5-methylcytosine; d = 2'-deoxy (DNA)
Kindly state Percent inhibition of Factor 11 mRNA at 12,000 nM for each of the entries shown.
Answer with a number only, understood to be in %.

Report value: Percent inhibition of Factor 11 mRNA at 12,000 nM, system: human Factor 11 mRNA, substance: 445531 (antisense eG*eG*e[5mC]*eA*eT*dT*dG*dG*dT*dG*d[5mC]*dA*d[5mC]*eA*eG*eT*eT*eT) [compound 445531]
93

Report value only: Percent inhibition of Factor 11 mRNA at 12,000 nM, human Factor 11 mRNA, 449708 (antisense eA*e[5mC]*eA*dG*dT*dT*dT*d[5mC]*dT*dG*dG*e[5mC]*eA*eG) [compound 449708]
85

Name the value of Percent inhibition of Factor 11 mRNA at 12,000 nM reported for 416858 (antisense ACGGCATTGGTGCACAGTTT; 5-10-5 gapmer, further chemistry not given here) [compound 416858] when tested on human Factor 11 mRNA.
93

Please report the measured Percent inhibition of Factor 11 mRNA at 12,000 nM for 449711 (antisense eA*e[5mC]*dA*dG*dT*dT*dT*d[5mC]*dT*dG*dG*d[5mC]*eA*eG) [compound 449711] tested on human Factor 11 mRNA.
52

Report measured Percent inhibition of Factor 11 mRNA at 12,000 nM on human Factor 11 mRNA; entry: 449709 (antisense eG*e[5mC]*eA*e[5mC]*dA*dG*dT*dT*dT*d[5mC]*dT*dG*dG*d[5mC]*eA*eG*eG*e[5mC]) [compound 449709]
95

Lab note: human Factor 11 mRNA assay, enter Percent inhibition of Factor 11 mRNA at 12,000 nM for 449707 (antisense e[5mC]*eA*e[5mC]*eA*dG*dT*dT*dT*d[5mC]*dT*dG*dG*e[5mC]*eA*eG*eG) [compound 449707] here
91

Write Percent inhibition of Factor 11 mRNA at 12,000 nM of 449710 (antisense e[5mC]*eA*e[5mC]*dA*dG*dT*dT*dT*d[5mC]*dT*dG*dG*d[5mC]*eA*eG*eG) [compound 449710] ; system used: human Factor 11 mRNA
87

State the measured Percent inhibition of Factor 11 mRNA at 12,000 nM (human Factor 11 mRNA) of 445522 (antisense eG*e[5mC]*eA*e[5mC]*eA*dG*dT*dT*dT*d[5mC]*dT*dG*dG*e[5mC]*eA*eG*eG*e[5mC]) [compound 445522]
92

Tell me Percent inhibition of Factor 11 mRNA at 12,000 nM of 416850 (antisense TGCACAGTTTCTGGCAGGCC; 5-10-5 gapmer, further chemistry not given here) [compound 416850] when tested on human Factor 11 mRNA.
95
